Tested on: A549 lung cancer cells
experimentalProtocol: MTT cell viability assay, A549
Type: cell-based, human
conditionSet: 48 h, mean of three independent experiments (N = 9)
propertyMeasured: IC50 (µM)
Number in µM, nothing else.

Study these solved cases before continuing.
[[record]]
molecule = "CCCCCCCCC[n+]1ccc(C(=O)NN=Cc2ccc[n+](CCCCCCCCC)c2)cc1.[I-].[I-]"
measurementtarget = "A549 lung cancer cells"
propertymeasured = "IC50"
unittext = "µM"
val = 55.6

[[record]]
molecule = "CCCCCCCCCCCCCCCC[n+]1ccc(C(=O)NN=Cc2ccc[n+](CCCCCCCCCCCCCCCC)c2)cc1 [Compound 32]"
measurementtarget = "A549 lung cancer cells"
propertymeasured = "IC50"
unittext = "µM"
val = 114

[[record]]
molecule = "CCCCCCCC[n+]1ccc(C(=O)NN=Cc2ccc[n+](CCCCCCCC)c2)cc1"
measurementtarget = "A549 lung cancer cells"
propertymeasured = "IC50"
unittext = "µM"
val = 78.5

[[record]]
molecule = "CCCCCCCCCCCCCCCCCC[n+]1ccc(C(=O)NN=Cc2ccc[n+](CCCCCCCCCCCCCCCCCC)c2)cc1.[I-].[I-]"
measurementtarget = "A549 lung cancer cells"
propertymeasured = "IC50"
unittext = "µM"
val = 26.2

[[record]]
molecule = "CCCCCCCCCCCCCCCC[n+]1ccc(C(=O)NN=Cc2ccc[n+](CCCCCCCCCCCCCCCC)c2)cc1 [Compound 33]"
measurementtarget = "A549 lung cancer cells"
propertymeasured = "IC50"
unittext = "µM"
val = 87.8

[[record]]
molecule = "CCCCCCCCCCCC[n+]1ccc(C(=O)NN=Cc2ccc[n+](CCCCCCCCCCCC)c2)cc1.[I-].[I-]"
measurementtarget = "A549 lung cancer cells"
propertymeasured = "IC50"
unittext = "µM"
val = 26.9

[[record]]
molecule = "CCCCCCCCCCCCCC[n+]1ccc(C(=O)NN=Cc2ccc[n+](CCCCCCCCCCCCCC)c2)cc1 [Compound 13]"
measurementtarget = "A549 lung cancer cells"
propertymeasured = "IC50"
unittext = "µM"
val = 36.8

[[record]]
molecule = "CCCCCCCCC[n+]1ccc(C(=O)NN=Cc2ccc[n+](CCCCCCCCC)c2)cc1"
measurementtarget = "A549 lung cancer cells"
propertymeasured = "IC50"
unittext = "µM"
val = 33.5


Read the next record carefully.
**Q:** Quick one: IC50 for CCCCCCCCCC[n+]1ccc(C(=O)NN=Cc2ccc[n+](CCCCCCCCCC)c2)cc1 ?
**A:** 20
